Recorded values, source paper PMC4072508.

biological target: Bcl-xL, Q07817; experiment: peptide SPOT array, c-Myc-tagged receptor at 1 uM or 100 nM, anti-c-Myc-Cy3
Sequence (Q07817 1-209): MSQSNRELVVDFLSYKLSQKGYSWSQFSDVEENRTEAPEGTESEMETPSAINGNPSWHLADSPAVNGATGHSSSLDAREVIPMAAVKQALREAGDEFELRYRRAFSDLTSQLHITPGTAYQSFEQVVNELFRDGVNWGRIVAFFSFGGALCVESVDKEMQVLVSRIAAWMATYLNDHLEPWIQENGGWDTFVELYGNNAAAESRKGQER
SPOT signal as a fraction of Bim BH3's signal on the same receptor and array overview

Past entries and their recorded results:
binder: RRTSINVVRHDGIVGECNIQFALHPT [CPS1]
testResult: 0.03

binder: DISALTASNLDKKYAEKYSGILEGPV [FIGN]
testResult: 0.02

binder: EAVTDGLKRALRSFLNALGNCILDKD [RAD52]
testResult: 0.08

Lab note: APGEEDLCAADNVICDNVGKDWRRLA [FADD] gave SPOT signal as a fraction of Bim BH3's signal on the same receptor and array of 0.06

Lab note: FTGNNTAVQELKRVSEQFTATFRRKA [TUBB4Q] gave SPOT signal as a fraction of Bim BH3's signal on the same receptor and array of 0.93

Lab note: VGNVDECGKKLVEVARRCRDEAIAAC [XXXX] gave SPOT signal as a fraction of Bim BH3's signal on the same receptor and array of 0.02

Lab note: MSILTIASAVDEFVGDGIYNNTMGHV [TAP1] gave SPOT signal as a fraction of Bim BH3's signal on the same receptor and array of 0.06
